All figures here come from patent US20240301062A1.

Catalogue of EC50 (read off the curve) readings, one per entry.
target: T1, human native CD3 on live cells (HuT78, Jurkat) (human, UniProt P07766 23-207; P09693 23-182; P04234 22-171); experiment: flow cytometry on live HuT78 cells, mouse anti-human IgG secondary, MFI
T1 construct: whole, on cells; also called human CD3
T1 sequence (P07766 23-207, chain 1 of 3): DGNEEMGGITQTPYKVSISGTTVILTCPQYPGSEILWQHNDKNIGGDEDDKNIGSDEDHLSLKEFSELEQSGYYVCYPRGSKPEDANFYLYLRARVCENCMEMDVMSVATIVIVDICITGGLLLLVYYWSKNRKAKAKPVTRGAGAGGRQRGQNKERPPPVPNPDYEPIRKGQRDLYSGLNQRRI
T1 sequence (P09693 23-182, chain 2 of 3): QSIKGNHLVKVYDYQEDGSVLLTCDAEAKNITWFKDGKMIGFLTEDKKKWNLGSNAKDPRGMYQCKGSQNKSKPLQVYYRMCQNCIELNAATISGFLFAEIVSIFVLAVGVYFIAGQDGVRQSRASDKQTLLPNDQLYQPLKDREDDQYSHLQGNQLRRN
T1 sequence (P04234 22-171, chain 3 of 3): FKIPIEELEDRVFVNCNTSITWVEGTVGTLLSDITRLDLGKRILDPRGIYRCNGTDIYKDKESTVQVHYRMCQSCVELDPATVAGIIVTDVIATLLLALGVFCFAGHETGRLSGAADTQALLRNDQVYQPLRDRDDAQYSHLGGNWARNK

humanized scFv BG563P (scFv-Fc) (Fc fusion, BG561P with L4V in VL and A49G, D65G in VH; not shown: human IgG1 Fc region, scFv fused to its N-terminus) scFv: EVQLVESGGGLVQPGGSLRLSCAASGFTFNTYAMNWVRQAPGKGLEWVGRIRSKYNNYATYYADSVKGRFTISRDDAKNSLYLQMNSLRAEDTAVYYCVRHGNFGNSYVSWFAYWGQGTLVTVSSGGGGSGGGGSGGGGSEIVVTQSPATLSVSPGERATLSCRSSTGAVTTSNYANWVQQKPGQAPRGLIGGTNKRAPGIPARFSGSLSGDEATLTISSLQSEDFAVYYCALWYSNLWVFGGGTKVEIK
~0.1 µg/mL
humanized sp34 BG53P (antibody, V domains shown, also called hu-sp34) VH: EVQLVESGGGLVQPGGSLRLSCAASGFTFNTYAMNWVRQAPGKGLEWVARIRSKYNNYATYYADSVKDRFTISRDDAKSSLYLQMNSLRAEDTAMYYCVRHGNFGNSYVSWFAYWGQGTLVTVSS VL: QAVVTQSPATLSVSPGERATLSCRSSTGAVTTSNYANWVQEKPGQLFTGLIGGTNKRAPGIPARFSGSLSGDEATLTISSLQSEDFAIYFCALWYSNLWVFGGGTKVEIK
~0.3 µg/mL

Please turn your attention to the following entry.
Input line: Provide measured EC50 (read off the curve) value, entry: chimeric sp34 (ch-sp34) (antibody, V domains shown) VH: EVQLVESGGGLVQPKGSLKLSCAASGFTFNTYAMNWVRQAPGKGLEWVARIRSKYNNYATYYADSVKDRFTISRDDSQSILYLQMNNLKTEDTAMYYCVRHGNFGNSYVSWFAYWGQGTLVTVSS VL: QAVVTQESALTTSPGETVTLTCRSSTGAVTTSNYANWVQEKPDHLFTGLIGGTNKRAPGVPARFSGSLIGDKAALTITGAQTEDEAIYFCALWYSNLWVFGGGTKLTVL
Output line: ~0.3 µg/mL
